Data provenance: paper PMC11281459

OBSERVABLE: IC50

Query: Enter reported IC50 observed with hCoV-OC43 3CLPro (Human coronavirus OC43, UniProt P0C6X6) for CNC(=O)C(=O)[C@H](CCC(C)(F)F)NC(=O)[C@@H]1[C@H]2CCC[C@H]2CN1C(=O)[C@@H](NC(=O)OC)C(C)(C)C [MK-7845]
Sequence (P0C6X6 3247-3549 limits assumed): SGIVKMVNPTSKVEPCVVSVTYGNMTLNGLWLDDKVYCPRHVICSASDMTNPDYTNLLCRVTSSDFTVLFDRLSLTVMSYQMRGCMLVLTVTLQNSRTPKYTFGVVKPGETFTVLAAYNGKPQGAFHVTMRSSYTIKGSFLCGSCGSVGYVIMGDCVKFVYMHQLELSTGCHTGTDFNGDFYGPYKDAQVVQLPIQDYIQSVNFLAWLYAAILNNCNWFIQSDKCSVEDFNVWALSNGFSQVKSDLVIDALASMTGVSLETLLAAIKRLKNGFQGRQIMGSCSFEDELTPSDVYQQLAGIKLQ
Reply: 17 nM

* * *

Give measured EC50 for each item. Keep answers brief.
- Test system: MERS-CoV replicon
- EXPERIMENT NOTES: microbe, parasite or virus in culture
- Format: cell-based
- ASSAY SETUP: Middle East respiratory syndrome-related coronavirus, A549, read-out: EC50 Geomean
Give just the number in nM; leave the unit off.

Query: Dear colleague, I am looking for the recorded EC50 of the following compound: CNC(=O)C(=O)[C@H](CCC(C)(F)F)NC(=O)[C@@H]1[C@H]2CCC[C@H]2CN1C(=O)[C@@H](NC(=O)OC)C(C)(C)C [MK-7845]
Reply: 270

Query: Name the reported EC50 value associated with the compound CC(C)(C)[C@H](NC(=O)C(F)(F)F)C(=O)N1C[C@H]2[C@@H]([C@H]1C(=O)N[C@H](C#N)C[C@@H]1CCNC1=O)C2(C)C [Nirmatrelvir, nirmatrelvir]
Reply: 60

Query: Any idea what EC50 was measured for CCC(CC)COC(=O)[C@H](C)N[P@](=O)(OC[C@H]1O[C@@](C#N)(c2ccc3c(N)ncnn23)[C@H](O)[C@@H]1O)Oc1ccccc1 [Remdesivir, remdesivir] ?
Reply: 780

* * *

- EXPERIMENT NOTES: in vitro
- ASSAY SETUP: African green monkey
Give CC50 for every item shown.

Query: // lookup CC50 for CC(C)(C)[C@H](NC(=O)C(F)(F)F)C(=O)N1C[C@H]2[C@@H]([C@H]1C(=O)N[C@H](C#N)C[C@@H]1CCNC1=O)C2(C)C
Reply: > 100 µM

Query: What value of measured CC50 is listed for CNC(=O)C(=O)[C@H](CCC(C)(F)F)NC(=O)[C@@H]1[C@H]2CCC[C@H]2CN1C(=O)[C@@H](NC(=O)OC)C(C)(C)C ?
Reply: > 100 µM

Query: # get_value(readout='CC50', item= CCC(CC)COC(=O)[C@H](C)N[P@](=O)(OC[C@H]1O[C@@](C#N)(c2ccc3c(N)ncnn23)[C@H](O)[C@@H]1O)Oc1ccccc1 )
Reply: 20 µM

* * *

- EXPERIMENT NOTES: in vivo
- ASSAY SETUP: female, CD-1, mouse, po, 1000 mg/kg
OBSERVABLE: AUC (µg·h/mL)
The response must be a number in µg·h/mL with no trailing unit.

Query: # lookup: AUC of CNC(=O)C(=O)[C@H](CCC(C)(F)F)NC(=O)[C@@H]1[C@H]2CCC[C@H]2CN1C(=O)[C@@H](NC(=O)OC)C(C)(C)C
Reply: 306

* * *

- EXPERIMENT NOTES: in vivo
- ASSAY SETUP: female, CD-1, mouse, po, 500 mg/kg
OBSERVABLE: AUC (µg·h/mL)
Answer with a number only, understood to be in µg·h/mL.

Query: Param item = CNC(=O)C(=O)[C@H](CCC(C)(F)F)NC(=O)[C@@H]1[C@H]2CCC[C@H]2CN1C(=O)[C@@H](NC(=O)OC)C(C)(C)C [MK-7845] ; retrieve measured AUC.
Reply: 238
